Target: human MRGPRX2 (Homo sapiens, UniProt Q96LB1)
Sequence (Q96LB1 1-330): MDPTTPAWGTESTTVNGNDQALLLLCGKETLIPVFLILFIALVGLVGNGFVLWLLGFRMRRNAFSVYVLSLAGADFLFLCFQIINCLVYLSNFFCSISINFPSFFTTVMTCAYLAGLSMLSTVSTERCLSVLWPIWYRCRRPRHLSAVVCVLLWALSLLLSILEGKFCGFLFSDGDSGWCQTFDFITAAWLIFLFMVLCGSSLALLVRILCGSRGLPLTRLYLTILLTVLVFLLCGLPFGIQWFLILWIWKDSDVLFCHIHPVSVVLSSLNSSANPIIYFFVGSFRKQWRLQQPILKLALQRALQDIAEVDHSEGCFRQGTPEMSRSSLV
Test: MRGPRX2 Activity Assay (IP-1 HTRF, antagonist mode)
Settings: FlpIn TRex-MRGPRX2-HEK293 cells; versus 1 μM Cortistatin-14 agonist; 30 minutes preincubation
ENDPOINT: IC50 (nM)
Provide only the numeric value, understood in nM.

Guide cases for IC50, answers given:
Prompt: Form entry - test system: human MRGPRX2 (Homo sapiens, UniProt Q96LB1); read-out: IC50; molecule: `O=C(Nc1cn(Cc2cc(F)cc(F)c2)cn1)[C@H]1C(F)(F)C12CCC2`
Response: 258

Prompt: What about C[C@H](C(=O)Nc1cn(Cc2cc(F)cc(F)c2)c(C(F)F)n1)N1CCC(F)(F)[C@@H](c2cc[n+]([O-])cc2)C1 (single isomer, unassigned) ?
Response: 8

Others:
Prompt: Form entry - test system: human MRGPRX2 (Homo sapiens, UniProt Q96LB1); read-out: IC50; molecule: C[C@H](C(=O)Nc1cn(Cc2ccc(F)cc2F)cn1)N1CCC(F)(F)[C@@H](c2cc[n+]([O-])cc2)C1 (single isomer, unassigned)
Response: 2950

Prompt: What about C[C@@H](C(=O)Nc1cn2c(n1)CC[C@@H]2c1cc(F)cc(F)c1)N1CCC(F)(F)[C@H](c2ccc(=O)n(C)c2)C1 (single isomer, unassigned) ?
Response: 18

Prompt: What about C[C@@H](C(=O)Nc1cn(Cc2cc(F)cc(F)c2)c(C(F)F)n1)N1CCC(F)(F)[C@@H](c2cc[n+]([O-])cc2)C1 (single isomer, unassigned) ?
Response: 1170
